Values were extracted from patent US20240368168A1.

pIC50: −log10 of the molar value.
What follows is a collection of pIC50 values obtained with UniProt:Q6SZW1.
Sequence (Q6SZW1 28-724): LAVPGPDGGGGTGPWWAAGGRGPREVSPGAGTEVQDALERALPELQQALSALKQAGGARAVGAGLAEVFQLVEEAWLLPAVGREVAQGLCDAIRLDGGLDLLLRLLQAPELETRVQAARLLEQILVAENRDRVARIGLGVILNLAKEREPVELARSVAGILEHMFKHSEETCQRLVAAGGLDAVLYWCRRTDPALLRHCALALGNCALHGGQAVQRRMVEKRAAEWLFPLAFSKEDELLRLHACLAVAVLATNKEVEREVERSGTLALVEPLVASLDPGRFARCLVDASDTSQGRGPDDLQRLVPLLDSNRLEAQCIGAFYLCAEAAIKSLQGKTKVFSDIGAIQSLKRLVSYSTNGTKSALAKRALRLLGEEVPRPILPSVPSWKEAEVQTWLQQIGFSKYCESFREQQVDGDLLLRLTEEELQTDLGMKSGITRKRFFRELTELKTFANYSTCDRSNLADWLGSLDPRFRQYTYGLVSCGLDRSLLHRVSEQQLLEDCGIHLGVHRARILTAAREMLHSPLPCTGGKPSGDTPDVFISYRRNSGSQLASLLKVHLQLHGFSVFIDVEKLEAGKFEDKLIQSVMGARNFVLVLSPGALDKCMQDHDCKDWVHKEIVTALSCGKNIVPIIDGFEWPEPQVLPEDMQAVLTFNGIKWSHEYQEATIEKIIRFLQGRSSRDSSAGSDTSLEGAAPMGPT

Guide cases for pIC50, answers given:
- Compound: "CN(C(=O)OC(C)(C)C)c1ccc2ncc(-c3cncc4[nH]cc(I)c34)n2c1"
  pIC50: "5.00 to 6.00"
- Compound: "CN(C(=O)OC(C)(C)C)c1ccc2ncc(-c3cccc(NC(=O)COCCOCCOCC(=O)Nc4cccc(-c5cnc6ccc(N(C)C(=O)OC(C)(C)C)cn56)c4)c3)n2c1"
  pIC50: "> 6.00"
- Compound: "NS(=O)(=O)c1cccc(-c2cnc3ccccn23)c1"
  pIC50: "5.00 to 6.00"

Data request: Determine from records and report pIC50 for "CN(C(=O)OC(C)(C)C)c1ccc2ncc(-c3cccc4c3CC(=O)N4)n2c1"
Data returned: > 6.00

Data request: Please indicate pIC50 recorded for CN(C(=O)OC(C)(C)C)c1ccc2ncc(-c3cccc(NC(=O)COCCOCCOCC(=O)Nc4cccc5c4CN(C4CCC(=O)NC4=O)C5=O)c3)n2c1 (centres unmarked)
Data returned: > 6.00

Data request: # return recorded pIC50 for entry "CC(C)(C)C(=O)Nc1ccc2ncc(I)n2c1"
Data returned: 5.00 to 6.00
